Quick reference for pIC50 among some compounds
# TARGET SYSTEM: hNav1.8 (Homo sapiens)
# Construct: host or cells: HEK cells, stably transfected
# EXPERIMENT SUMMARY: hNav1.8 whole-cell patch-clamp electrophysiology (conventional or PatchXpress 7000) in stably transfected HEK cells
# Assay type: cell-based
# CONDITION LABEL: estimated IC50 calculated from single point % inhibition; HEK cells expressing hNav1.8; 8 sec prepulse to V1/2, 20 msec step to 0 mV; average of replicates; read-out: Nav1.8 EIC50
pIC50 (log units): -log10 of the concentration in mol/L.

COMPOUND: C[C@@H](O)[C@@H](N)c1nc2cc(C(C)(C)C)ccc2[nH]1 [Example 18]
pIC50: 6.31

Look up pIC50: N#Cc1ccc(-c2ccc3[nH]c([C@H]4C[C@@H](O)CN4)nc3c2)cc1 [Example 43]
6.07

----------
# TARGET SYSTEM: hNav1.8 (Homo sapiens, UniProt Q9Y5Y9)
# Construct: host or cells: HEK cells, stably transfected
# Sequence (Q9Y5Y9 whole entry): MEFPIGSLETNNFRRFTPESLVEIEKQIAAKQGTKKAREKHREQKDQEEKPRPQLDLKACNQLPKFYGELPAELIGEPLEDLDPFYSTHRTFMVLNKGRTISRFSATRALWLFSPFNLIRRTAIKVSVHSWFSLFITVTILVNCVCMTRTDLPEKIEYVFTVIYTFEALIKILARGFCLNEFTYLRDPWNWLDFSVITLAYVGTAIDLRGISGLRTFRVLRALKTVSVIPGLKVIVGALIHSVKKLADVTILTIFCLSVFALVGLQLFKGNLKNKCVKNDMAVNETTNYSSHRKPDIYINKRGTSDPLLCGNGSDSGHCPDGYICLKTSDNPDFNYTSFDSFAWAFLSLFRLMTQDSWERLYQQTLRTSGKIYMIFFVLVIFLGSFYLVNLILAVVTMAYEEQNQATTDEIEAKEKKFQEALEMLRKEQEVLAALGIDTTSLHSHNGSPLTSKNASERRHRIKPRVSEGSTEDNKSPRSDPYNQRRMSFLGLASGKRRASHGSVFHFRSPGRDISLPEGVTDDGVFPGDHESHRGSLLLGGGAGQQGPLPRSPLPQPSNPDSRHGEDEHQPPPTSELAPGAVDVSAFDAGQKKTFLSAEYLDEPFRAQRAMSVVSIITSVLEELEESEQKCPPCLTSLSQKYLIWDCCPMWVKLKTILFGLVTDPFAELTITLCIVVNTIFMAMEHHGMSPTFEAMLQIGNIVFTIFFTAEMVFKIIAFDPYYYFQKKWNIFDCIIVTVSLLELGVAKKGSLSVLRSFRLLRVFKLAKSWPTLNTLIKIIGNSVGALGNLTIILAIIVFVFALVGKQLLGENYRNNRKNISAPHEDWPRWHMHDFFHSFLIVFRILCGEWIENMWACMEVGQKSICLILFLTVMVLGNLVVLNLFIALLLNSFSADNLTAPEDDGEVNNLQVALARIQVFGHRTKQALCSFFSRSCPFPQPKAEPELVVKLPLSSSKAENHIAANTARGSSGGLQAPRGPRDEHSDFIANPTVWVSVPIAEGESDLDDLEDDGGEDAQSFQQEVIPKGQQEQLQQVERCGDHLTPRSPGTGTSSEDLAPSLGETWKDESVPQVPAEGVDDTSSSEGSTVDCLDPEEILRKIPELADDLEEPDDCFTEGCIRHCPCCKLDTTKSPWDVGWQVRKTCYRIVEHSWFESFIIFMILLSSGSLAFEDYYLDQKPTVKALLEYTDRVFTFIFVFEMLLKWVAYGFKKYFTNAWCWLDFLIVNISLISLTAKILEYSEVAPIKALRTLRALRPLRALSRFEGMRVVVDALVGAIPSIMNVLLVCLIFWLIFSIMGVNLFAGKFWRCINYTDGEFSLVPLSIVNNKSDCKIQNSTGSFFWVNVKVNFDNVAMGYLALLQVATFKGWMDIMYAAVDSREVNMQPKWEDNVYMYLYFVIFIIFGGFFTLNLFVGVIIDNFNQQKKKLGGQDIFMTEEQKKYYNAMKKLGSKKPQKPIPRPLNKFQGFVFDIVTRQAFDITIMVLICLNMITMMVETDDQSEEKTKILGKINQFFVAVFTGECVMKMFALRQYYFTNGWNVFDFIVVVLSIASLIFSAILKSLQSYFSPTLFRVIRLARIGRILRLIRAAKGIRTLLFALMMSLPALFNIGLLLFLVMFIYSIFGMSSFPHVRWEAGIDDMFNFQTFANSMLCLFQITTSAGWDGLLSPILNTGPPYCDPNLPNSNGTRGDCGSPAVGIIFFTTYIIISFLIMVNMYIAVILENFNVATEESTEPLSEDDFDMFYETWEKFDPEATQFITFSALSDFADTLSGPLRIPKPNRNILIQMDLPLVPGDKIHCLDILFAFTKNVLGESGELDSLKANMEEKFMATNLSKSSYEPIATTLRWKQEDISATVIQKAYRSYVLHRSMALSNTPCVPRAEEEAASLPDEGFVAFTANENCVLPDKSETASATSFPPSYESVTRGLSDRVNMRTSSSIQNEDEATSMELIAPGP
# EXPERIMENT SUMMARY: hNav1.8 whole-cell patch-clamp electrophysiology (conventional or PatchXpress 7000) in stably transfected HEK cells
# Assay type: cell-based
# CONDITION LABEL: estimated IC50 calculated from single point % inhibition; HEK cells expressing hNav1.8; 8 sec prepulse to V1/2, 20 msec step to 0 mV; average of replicates; read-out: Nav1.8 EIC50
# Lookup of reported IC50 keyed by entry
Dear colleague, please return just the value in nM, with no unit written.

COMPOUND: CC1(C)[C@@H]2[C@@H](c3nc4cc(-c5ccc(C#N)cc5)ccc4[nH]3)NC[C@@H]21
IC50 (nM): 77.4
//
COMPOUND: CC(C)(C)c1ccc2[nH]c([C@@H]3C[C@H](F)CN3)nc2c1
IC50 (nM): 191
//
COMPOUND: N#Cc1ccc(-c2ccc3[nH]c([C@@H]4CCCCN4)nc3c2)cc1
IC50 (nM): 3130
//
COMPOUND: C[C@@H](O)[C@@H](N)c1nc2cc(-c3ccc(C#N)cc3)ccc2[nH]1
IC50 (nM): 915
//
COMPOUND: CC(C)c1ccc2[nH]c([C@@H](N)CC(N)=O)nc2c1
IC50 (nM): 3310
//
COMPOUND: CC(C)(C)c1ccc2[nH]c([C@@H]3C[C@@H](O)CN3)nc2c1
IC50 (nM): 31.5
//
COMPOUND: CC(C)(C)c1ccc2[nH]c([C@H](N)CC(N)=O)nc2c1
IC50 (nM): 130
//
COMPOUND: CCCC[C@H](N)c1nc2cc(C(C)(C)C)ccc2[nH]1
IC50 (nM): 29.7
//
COMPOUND: C[C@@H](C(=O)N(C)C)[C@H](N)c1nc2cc(C(C)(C)C)ccc2[nH]1
IC50 (nM): 303
//
COMPOUND: CC(C)(C)c1ccc2[nH]c([C@@H](N)C(C)(C)O)nc2c1
IC50 (nM): 71

Can you share its IC50? I mean this compound: `CC(C)(N)c1nc2cc(-c3cccc(Cl)c3C#N)ccc2[nH]1`
827

What IC50 value was documented for this compound, `CO[C@@H](C)[C@@H](N)c1nc2cc(C(C)(C)C)ccc2[nH]1` ?
1080

Data request, read-out IC50, for `CO[C@@H](C)[C@@H](N)c1nc2cc(-c3ccc(C#N)cc3)ccc2[nH]1`
746

Endpoint output: IC50 of `CC(C)C[C@@H](N)c1nc2cc(C(C)(C)C)ccc2[nH]1` . Value?
108

Entry under review: `CC(C)(N)c1nc2cc(C3CCCCC3)ccc2[nH]1` . Reported IC50?
1000

Entry `C[C@@H](N)c1nc2cc(-c3ccc(C#N)cc3)ccc2[nH]1` has what IC50?
662

Quick one: IC50 for `CC(C)(C)c1ccc2[nH]c([C@@H](N)COC(N)=O)nc2c1` ?
85.2

Tell me the measured IC50 of `[2H][13C]([2H])([2H])[C@@H](C(N)=O)[C@H](N)c1nc2cc(C(C)(C)C)ccc2[nH]1` , please.
69.9

I am curious: what IC50 value has been reported for `CCC(C)(C)c1ccc2[nH]c([C@H](C)N)nc2c1` ?
171

What measured IC50 goes with `N#Cc1ccc(-c2ccc3[nH]c([C@@H](N)CC(N)=O)nc3c2)c(Cl)c1` ?
671

// returns reported IC50 for input `C[C@@H](O)[C@H](N)c1cn2cc(-c3ccc(C#N)cc3)ccc2n1`
108

I would be grateful if you could share the reported IC50 for `CO[C@H](C)[C@H](N)c1nc2cc(-c3cc(F)c(C#N)c(F)c3)ccc2[nH]1` .
1330

Request the reported IC50 associated with `CC(C)(C)c1ccc2[nH]c([C@H]3NCC[C@H]3O)nc2c1`
508

What does the data say about its IC50? Entry: `CCC(C)(C)c1ccc2[nH]c(C(C)(C)N)nc2c1`
635

What measured IC50 goes with `CC(C)(C)c1ccc2[nH]c([C@@H](N)C3CCCC3)nc2c1` ?
12.5

Query (compound): `CC(C)(C)c1ccc2[nH]c([C@H](N)C(C)(C)C)nc2c1` ; field requested: IC50
123

IC50 for `N#Cc1ccc(-c2ccc3[nH]c([C@@H]4C[C@H](O)CN4)nc3c2)cc1` ?
1050

Which IC50 reading was recorded for the compound `CC[C@@H](C(N)=O)[C@H](N)c1nc2cc(C(C)(C)C)ccc2[nH]1` ?
41.3

Give the measured IC50 of `C[C@H](O)[C@H](N)c1nc2cc(-c3ccc(C#N)cc3)ccc2[nH]1` .
486

Consider the compound shown here: `C[C@@H](C(N)=O)[C@H](N)c1nc2c(Cl)c(-c3ccc(C#N)c(F)c3)ccc2[nH]1` What is its recorded IC50?
233

// lookup IC50 for `CC(C)[C@H](N)c1nc2cc(-c3ccc(C#N)cc3)ccc2[nH]1`
703
